# target-entity: T1, mouse PAI-1 (mouse, UniProt P22777 24-401)
# T1 sequence: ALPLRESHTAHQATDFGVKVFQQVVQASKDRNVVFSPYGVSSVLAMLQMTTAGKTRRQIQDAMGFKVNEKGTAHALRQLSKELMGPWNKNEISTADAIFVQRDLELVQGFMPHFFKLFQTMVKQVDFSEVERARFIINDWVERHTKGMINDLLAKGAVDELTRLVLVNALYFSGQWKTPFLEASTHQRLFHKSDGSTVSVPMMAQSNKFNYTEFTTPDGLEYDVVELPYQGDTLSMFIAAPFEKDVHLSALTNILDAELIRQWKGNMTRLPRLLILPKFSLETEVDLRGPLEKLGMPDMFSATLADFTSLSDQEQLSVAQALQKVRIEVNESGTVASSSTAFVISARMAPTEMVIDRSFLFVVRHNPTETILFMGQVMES
# method-description: cell-based or functional assay
For each entry below, report its Chromogenic IC50 ratio mouse/human value.
# value in fold; strip the unit string

// returns reported Chromogenic IC50 ratio mouse/human for input Antibody 24 scFv (scFv) QVQLQQSGAEVKKPGSSVKVSCKASGGTFSSYAISWVRQAPGQGLEWMGGIIPTFVTANYAQKFQGRVSITADESTSTAYMELSGLRSEDTAVYYCAREKRQWLEGHFDYWGRGTPVTVSSDIQMTQSPSFLSASIGDRVTITCRASEGIYHALAWYQQKPGKAPKLLIYRASSLASGAPSRFSGSGSGTDFTLTISSLQPDDFATYYCQQYSNYPLTFGGGTKLEIK 43.3

Same question, Antibody 11 scFv (scFv) QVQLQQSGAEVKKPGSSVKVSCKASGGTFSSYAISWMRQAPGQGLEWMGGIIPIFGTANYAQKFQGRVTITADESTSTAYMELSGLRSEDTAVYYCAREKRQWLEGHFDYWGRGTPVTVSSDIQMIQSPSFLSASTGDRVTITCQASEGIYHELAWYQQKPGKAPKLLIYRASSLASGAPSRFSGSGSGTDFTLTISSLQPDDFATYYCQQYSNYPLTFGGGTKLEIK this time 0.3

Same question, Antibody 01 scFv (scFv) QVQLVQSGAEVKKPGSSVKVSCKASGGTFSSYAISWVRQAPGQGLEWMGGIIPIFGTANYAQKFQGRVTITADESTSTAYMELSSLRSEDTAVYYCAREKRQWLEGHFDYWGRGTLVTVSSDIQMTQSPSTLSASVGDRVTITCRASEGIYRSLAWYQQKPGKAPKLLIYKASSLASGVPSRFSGSGSGTEFTLTISSLQPDDFATYYCQQYSNYPLTFGGGTKVEIK this time 8.2
